Values were extracted from ChEMBL document CHEMBL1134543.

# systemTested: Glutamate receptor ionotropic, AMPA (Rattus norvegicus, UniProt P19490+P19491+P19492+P19493)
# procedureDetails: Binding affinity towards AMPA receptor by displacement of [3H]AMPA radioligand.
# Format: protein-complex assay
propertyName: Ki
Please answer using the number first and the unit second.

Inquiry: Given the compound N[C@@H](CCc1nc(C(=O)O)co1)C(=O)O , what is its reported Ki?
Reply text: 41 µM

====

# systemTested: Excitatory amino acid transporter 3 (Rattus norvegicus, UniProt P51907)
# Sequence (P51907 whole entry): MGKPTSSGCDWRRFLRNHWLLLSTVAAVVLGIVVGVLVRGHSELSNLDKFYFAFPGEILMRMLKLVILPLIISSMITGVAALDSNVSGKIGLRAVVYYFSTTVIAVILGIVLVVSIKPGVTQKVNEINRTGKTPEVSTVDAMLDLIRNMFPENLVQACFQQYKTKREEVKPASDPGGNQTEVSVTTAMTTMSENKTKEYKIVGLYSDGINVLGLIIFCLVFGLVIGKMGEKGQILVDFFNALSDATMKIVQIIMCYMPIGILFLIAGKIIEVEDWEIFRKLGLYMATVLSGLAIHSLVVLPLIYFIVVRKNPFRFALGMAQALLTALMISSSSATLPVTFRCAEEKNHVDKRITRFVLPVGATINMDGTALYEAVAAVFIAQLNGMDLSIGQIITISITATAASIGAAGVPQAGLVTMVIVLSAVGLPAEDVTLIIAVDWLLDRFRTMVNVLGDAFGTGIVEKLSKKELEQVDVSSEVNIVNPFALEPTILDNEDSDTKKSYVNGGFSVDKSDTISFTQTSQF
# procedureDetails: Inhibitory activity against EAAC1 (EAAT3) in presence of 20 uM L-glutamic acid in mammalian cells
# Type: cell-based
propertyName: Ki (µM)
Numbers only, in µM.

Inquiry: Given the compound O=C(O)[C@H]1N=C(c2ccccc2)O[C@@H]1C(=O)O , what is its reported Ki?
Reply text: 42
